# target.of.assay: recombinant guanylate cyclase reporter cell line (Rattus norvegicus, UniProt P19686+P20595)
# Construct: expressed in transfected cells
# assay.text: B-2. Action on recombinant guanylate cyclase reporter cell line
# Format: cell-based
# experimental.setup: MEC = minimal effective concentration; in some cases mean values from individual determinations
Where a name gives a salt, the structure may show the parent alone.
measured.metric: MEC (µM)
Please respond with the number in µM and leave the unit unwritten.

# compound, measured.metric, value.units, measured.result
rows = [
    ("Cc1nc2c(OCc3c(F)cccc3F)cccn2c1C(=O)NCCN1CCS(=O)(=O)CC1", "MEC", "µM", 3.00),
    ("Cc1cc(OCc2c(F)cccc2F)c2nc(C)c(C(=O)NC(CN)c3ccc([N+](=O)[O-])cc3)n2c1 (racemic)", "MEC", "µM", 0.30),
    ("Cc1nc2c(OCc3c(F)cccc3F)cc(Cl)cn2c1C(=O)NCC1(N)CCC1 [Example 155, trifluoroacetate]", "MEC", "µM", 0.30),
    ("Cc1cc(OCc2c(F)cccc2F)c2nc(C)c(C(=O)NC(C)CN)n2c1 (stereo not shown)", "MEC", "µM", 1.00),
    ("Cc1cc(OCc2c(F)cccc2F)c2nc(C)c(C(=O)NCC3(N)CC3)n2c1", "MEC", "µM", 0.10),
    ("Cc1cc(OCc2c(F)cccc2F)c2nc(C)c(C(=O)NC(C)C3CCN(C)CC3)n2c1 (racemic)", "MEC", "µM", 1.00),
]

Per the record, COCC(N)CNC(=O)c1c(C)nc2c(OCc3c(F)cccc3F)cccn12 (single isomer, unassigned) [Example 247] has MEC of 3.00

---

# target.of.assay: recombinant guanylate cyclase reporter cell line (Rattus norvegicus, UniProt P19686+P20595)
# Construct: expressed in transfected cells
# assay.text: B-2. Action on recombinant guanylate cyclase reporter cell line
# Format: cell-based
# experimental.setup: MEC = minimal effective concentration; in some cases mean values from individual determinations
measured.metric: MEC (µM)
Please respond with the number in µM and leave the unit unwritten.

# compound, value.units, measured.result
records = [
    ("COC(=O)[C@@H](N)CNC(=O)c1c(C)nc2c(OCc3c(F)cccc3F)cc(C)cn12 [Example 319]", "µM", 0.30),
    ("Cc1cc(OCc2c(F)cccc2F)c2nc(C)c(C(=O)NC3(C)CCC3(C)N)n2c1 (single isomer, unassigned; enantiomer b) [Example 337]", "µM", 0.55),
    ("Cc1cc(OCc2c(F)ccc(F)c2F)c2nc(C)c(C(=O)NCC(C)(C)N)n2c1 [Example 276]", "µM", 0.10),
    ("CCCc1nc2c(OCc3c(F)cccc3F)cc(C)cn2c1C(=O)NCC(C)(N)CC (stereo not shown) [Example 327]", "µM", 1.00),
    ("CSCCC(CN)NC(=O)c1c(C)nc2c(OCc3c(F)cccc3F)cc(C)cn12 (racemic) [Example 391]", "µM", 0.10),
    ("Cc1nc2c(OCc3c(F)cccc3F)cccn2c1C(=O)NC(C)[C@@H](C)N (single isomer, unassigned) [Example 177]", "µM", 1.00),
]

Here is another compound to look at.
Per the record, Cc1cc(OCc2c(F)cccc2F)c2nc(C)c(C(=O)NC3CC3N)n2c1 (racemic) [Example 330] has MEC of 0.30

---

# target.of.assay: recombinant guanylate cyclase reporter cell line (Rattus norvegicus, UniProt P19686+P20595)
# Construct: expressed in transfected cells
# assay.text: B-2. Action on recombinant guanylate cyclase reporter cell line
# Type: cell-based
# experimental.setup: MEC = minimal effective concentration; in some cases mean values from individual determinations
Counter-ions that a name gives are not always drawn.
# MEC annotations
Please respond with the number in µM and leave the unit unwritten.

# compound, measured.metric, measured.result
records = [
    ("Cc1nc2c(OCc3c(F)cccc3F)cccn2c1C(=O)NC1CNCc2ccccc21 (single isomer, unassigned; ent-8) [Example 109]", "MEC", 1.00),
    ("Cc1nc2c(OCc3c(F)cccc3F)cccn2c1C(=O)NCC(N)C(F)(F)F (single isomer, unassigned) [Example 209]", "MEC", 0.30),
    ("Cc1nc2c(OCC3CCCCC3)cccn2c1C(=O)NC(CN)c1ccc(Cl)cc1 (racemic) [Example 43]", "MEC", 1.00),
    ("COCC(C)(N)CNC(=O)c1c(C)nc2c(OCc3c(F)cccc3F)cccn12 (racemic) [Example 213]", "MEC", 1.00),
    ("Cc1nc2c(OCc3c(F)cccc3F)cccn2c1C(=O)NC(CN)CCCC(F)(F)F (single isomer, unassigned; enantiomer b) [Example 6]", "MEC", 0.23),
    ("Cc1nc2c(OCc3c(F)cccc3F)cccn2c1C(=O)NCCNc1ccc(F)cc1 [Example 79]", "MEC", 1.00),
    ("Cc1nc2c(OCc3c(F)cccc3F)cc(Cl)cn2c1C(=O)NCC(N)C(C)C (single isomer, unassigned) [Example 211]", "MEC", 0.30),
    ("CCCC(C)(N)CNC(=O)c1c(CC)nc2c(OCc3c(F)cccc3F)cc(C)cn12 (racemic) [Example 301]", "MEC", 0.10),
    ("Cc1cc(OCc2c(F)cccc2F)c2nc(C)c(C(=O)NC3CC(C)Nc4ccc(C(F)(F)F)nc43)n2c1 (single isomer, unassigned; ent-8) [Example 326]", "MEC", 0.30),
    ("Cc1nc2c(OCc3c(F)cccc3F)cccn2c1C(=O)NC(CN)COc1ccccc1 (racemic) [Example 59, dihydrochloride]", "MEC", 3.00),
]

Per the record, Cc1nc2c(OCC3CCCCC3)cccn2c1C(=O)NC(CN)c1ccc(F)c(F)c1 (single isomer, unassigned) [Example 179] has MEC of 1.00

Per the record, Cc1nc2c(OCc3c(F)cccc3F)cccn2c1C(=O)NC(CNCC(F)(F)F)c1ccc(F)c(F)c1 (single isomer, unassigned; ent-8) [Example 222] has MEC of 0.30

Per the record, Cc1cc(OCCC(C(F)(F)F)C(F)(F)F)c2nc(C)c(C(=O)NCC(C)(N)CC(C)C)n2c1 (racemic) [Example 258] has MEC of 1.00

Per the record, Cc1nc2c(OCc3c(F)cccc3F)cccn2c1C(=O)NCC(N)C(C)C (single isomer, unassigned) [Example 228] has MEC of 1.00

---

# target.of.assay: recombinant guanylate cyclase reporter cell line (Rattus norvegicus, UniProt P19686+P20595)
# Construct: expressed in transfected cells
# Sequence (P20595 1-619): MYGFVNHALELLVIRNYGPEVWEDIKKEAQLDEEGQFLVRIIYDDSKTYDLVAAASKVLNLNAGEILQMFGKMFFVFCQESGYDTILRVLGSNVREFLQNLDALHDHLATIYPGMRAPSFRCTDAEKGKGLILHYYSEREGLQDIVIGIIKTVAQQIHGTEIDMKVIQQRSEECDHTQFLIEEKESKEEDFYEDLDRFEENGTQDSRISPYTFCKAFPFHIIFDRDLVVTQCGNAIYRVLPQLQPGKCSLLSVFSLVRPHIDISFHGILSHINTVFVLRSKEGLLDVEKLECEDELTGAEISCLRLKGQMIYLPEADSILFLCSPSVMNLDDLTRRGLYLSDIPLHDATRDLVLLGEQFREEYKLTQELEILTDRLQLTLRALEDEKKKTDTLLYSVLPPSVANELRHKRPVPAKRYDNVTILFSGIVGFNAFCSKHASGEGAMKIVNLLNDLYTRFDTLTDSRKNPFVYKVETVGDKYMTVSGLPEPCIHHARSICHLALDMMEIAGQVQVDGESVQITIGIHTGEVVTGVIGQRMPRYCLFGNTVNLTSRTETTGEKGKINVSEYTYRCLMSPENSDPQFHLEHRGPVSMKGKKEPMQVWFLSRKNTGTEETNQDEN
# Sequence (P19686 1-690): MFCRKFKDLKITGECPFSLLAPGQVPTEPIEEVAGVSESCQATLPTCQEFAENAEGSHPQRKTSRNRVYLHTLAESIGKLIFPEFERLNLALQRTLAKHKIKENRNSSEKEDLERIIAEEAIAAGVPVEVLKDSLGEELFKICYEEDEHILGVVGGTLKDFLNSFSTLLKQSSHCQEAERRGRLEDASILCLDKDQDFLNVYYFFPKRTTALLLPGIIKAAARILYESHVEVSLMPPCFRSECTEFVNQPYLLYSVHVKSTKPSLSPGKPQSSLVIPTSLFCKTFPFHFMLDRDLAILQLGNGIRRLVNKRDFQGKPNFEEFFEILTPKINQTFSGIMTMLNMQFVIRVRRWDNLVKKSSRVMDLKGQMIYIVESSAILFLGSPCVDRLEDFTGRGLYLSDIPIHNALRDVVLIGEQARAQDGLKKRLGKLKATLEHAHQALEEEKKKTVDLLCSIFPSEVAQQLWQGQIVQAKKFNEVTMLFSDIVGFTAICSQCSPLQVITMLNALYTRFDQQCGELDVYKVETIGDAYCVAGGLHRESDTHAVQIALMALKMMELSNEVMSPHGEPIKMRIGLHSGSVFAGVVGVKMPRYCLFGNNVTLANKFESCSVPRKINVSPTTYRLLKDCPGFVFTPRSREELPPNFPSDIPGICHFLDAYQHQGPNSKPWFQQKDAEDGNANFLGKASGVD
# assay.text: B-2. Action on recombinant guanylate cyclase reporter cell line
# Type: cell-based
# experimental.setup: MEC = minimal effective concentration; in some cases mean values from individual determinations
# MEC annotations
Value and unit, in that order.

Solved entries (count: 5):
# compound, MEC
records = [
    ("Cc1cc(OCc2c(F)cccc2F)c2nc(C)c(C(=O)NC(CN)c3cccc(OCCO)c3)n2c1 (racemic)", "1.00 µM"),
    ("Cc1nc2c(OCc3c(F)cccc3F)cccn2c1C(=O)NCC(C(C)C)N(C)C (racemic) [Example 142]", "1.00 µM"),
    ("Cc1nc2c(OCc3c(F)cccc3F)cccn2c1C(=O)NC12CNCCC1C2 (single isomer, unassigned) [Example 184]", "1.00 µM"),
    ("CCCC(C)(N)CNC(=O)c1c(C)nc2c(OCc3c(F)c(F)cc(F)c3F)cc(C)cn12 (racemic)", "0.30 µM"),
    ("Cc1nc2c(OCc3c(F)cccc3F)cccn2c1C(=O)NCC(N)C(F)(F)C(F)F (racemic) [Example 230]", "1.00 µM"),
]

Per the record, Cc1nc2c(OCc3c(F)cccc3F)cccn2c1C(=O)NC(CN)c1ccc(F)c(F)c1 (racemic) [Example 11] has MEC of 0.30 µM

Per the record, Cc1nc2c(OCc3c(F)cccc3F)cc(Cl)cn2c1C(=O)NCC(C)(N)C(F)(F)F (single isomer, unassigned) [Example 237] has MEC of 0.30 µM

Per the record, Cc1cc(OCc2c(F)cccc2F)c2nc(C)c(C(=O)NCC3CCc4ccccc4N3)n2c1 (racemic) has MEC of 0.30 µM

Per the record, CCCC[C@H](CN1CCCC1)NC(=O)c1c(C)nc2c(OCc3c(F)cccc3F)cccn12 has MEC of 1.00 µM

Per the record, COCCNCCNC(=O)c1c(C)nc2c(OCc3c(F)cccc3F)cccn12 has MEC of 3.00 µM

Per the record, Cc1nc2c(OCc3c(F)cccc3F)cc(Cl)cn2c1C(=O)NCC(C)(N)C(F)(F)F (single isomer, unassigned) [Example 238] has MEC of 1.00 µM

Per the record, COCC(CN)NC(=O)c1c(C)nc2c(OCc3c(F)cccc3F)cc(C)cn12 (single isomer, unassigned) has MEC of 0.30 µM

Per the record, Cc1cc(OCc2c(F)cccc2F)c2nc(C)c(C(=O)NCC(C)(N)C(F)(F)F)n2c1 (racemic) [Example 239] has MEC of 0.30 µM

Per the record, CCC(C)(N)CNC(=O)c1c(C)nc2c(OCc3c(F)cccc3F)cc(CF)cn12 (centres unmarked) has MEC of 0.30 µM

Per the record, COCC(CN)NC(=O)c1c(C)nc2c(OCc3c(F)cccc3F)cccn12 (single isomer, unassigned) [Example 123] has MEC of 3.00 µM

Per the record, Cc1cc(OCc2c(F)cccc2F)c2nc(C)c(C(=O)NCC(C)(N)Cc3ccccn3)n2c1 (racemic) [Example 297] has MEC of 0.10 µM

Per the record, Cc1nc2c(OCc3c(F)cccc3F)cccn2c1C(=O)NC(CN)c1ccc(F)cc1F (centres unmarked) has MEC of 0.30 µM

Per the record, Cc1cc(OCc2c(F)cccc2F)c2nc(C)c(C(=O)NCCC(C)(C)N)n2c1 has MEC of 0.30 µM
